Tested on: Human alphaherpesvirus 1
Experiment: Evaluated for minimum inhibitory concentration against KOS, F, McIntyre strains of Herpes simplex virus (HSV-1) in primary rabbit kidney cells
Format: functional
Listing: MIC of selected compounds

Past entries and their recorded results:
- COMPOUND: "Cc1cn(C2CC3OCC2C3CO)c(=O)[nH]c1=O (stereo not given)"
  PROPERTY: "MIC"
  OBSERVED_RESULT: "> 400 µg/mL"
- COMPOUND: "Cc1cn([C@@H]2C[C@H](CO)[C@@H](O)C2)c(=O)[nH]c1=O"
  PROPERTY: "MIC"
  OBSERVED_RESULT: "0.2 µg/mL"
- COMPOUND: "NC(=O)c1ncn([C@@H]2O[C@H](CO)[C@@H](O)[C@H]2O)n1"
  PROPERTY: "MIC"
  OBSERVED_RESULT: "> 400 µg/mL"
- COMPOUND: "Nc1ncnc2c1ncn2[C@@H]1C[C@H](CO)[C@@H](O)C1"
  PROPERTY: "MIC"
  OBSERVED_RESULT: "2 µg/mL"
- COMPOUND: "Cc1cn([C@H]2C[C@H](O)[C@@H](CO)[C@@H]2C)c(=O)[nH]c1=O"
  PROPERTY: "MIC"
  OBSERVED_RESULT: "> 400 µg/mL"

// MIC value for "O=c1[nH]c(=O)n([C@H]2C[C@H](O)[C@@H](CO)O2)cc1/C=C/Br" : 0.02 µg/mL

// MIC value for "Cc1cn([C@H]2CC[C@@H](CO)C2)c(=O)[nH]c1=O" : > 400 µg/mL

// MIC value for "Nc1nccc2c1ncn2[C@@H]1C[C@H](CO)[C@@H](O)[C@H]1O" : > 400 µg/mL

// MIC value for "Cc1cn([C@H]2C[C@@H](CO)[C@H](O)C2)c(=O)[nH]c1=O" : > 400 µg/mL

// MIC value for "Cc1cn([C@@H]2C[C@H](CO)[C@H](O)C2)c(=O)[nH]c1=O" : > 400 µg/mL

* * *

Test system: Human immunodeficiency virus 1
Experiment: Evaluated for minimum inhibitory concentration (MIC) against MT-4 cells of human immunodeficiency virus type-1 (HIV-1)
Format: functional, MT4
PROPERTY: MIC

- MOLECULE: "Cc1cn([C@H]2C[C@@H](CO)[C@H](O)C2)c(=O)[nH]c1=O"
  MIC: "> 160 µg/mL"
- MOLECULE: "Cc1cn([C@H]2C[C@H](N=[N+]=[N-])[C@@H](CO)O2)c(=O)[nH]c1=O [ZIDOVUDINE]"
  MIC: "0.001 µg/mL"
- MOLECULE: "Cc1cn([C@@H]2C[C@H](CO)[C@H](O)C2)c(=O)[nH]c1=O"
  MIC: "> 250 µg/mL"
- MOLECULE: "Cc1cn([C@H]2C[C@H](O)[C@@H](CO)[C@@H]2C)c(=O)[nH]c1=O"
  MIC: "> 250 µg/mL"
- MOLECULE: "Cc1cn([C@H]2CC[C@@H](CO)C2)c(=O)[nH]c1=O"
  MIC: "> 250 µg/mL"
- MOLECULE: "Cc1cn(C2CC3OCC2C3CO)c(=O)[nH]c1=O (configuration not stated)"
  MIC: "> 250 µg/mL"

Pending molecule:
// MIC value for "Nc1ncnc2c1ncn2[C@@H]1C[C@H](CO)[C@@H](O)C1" : > 50 µg/mL

Source of measurements: ChEMBL document CHEMBL1125081
